This collection of values is drawn from patent US20260151494A1.

Biological target: T1, human CD71 extracellular domain (human, UniProt P02786 89-760)
T1 construct: also called hCD71; human CD71-ECD
T1 sequence (P02786 89-760): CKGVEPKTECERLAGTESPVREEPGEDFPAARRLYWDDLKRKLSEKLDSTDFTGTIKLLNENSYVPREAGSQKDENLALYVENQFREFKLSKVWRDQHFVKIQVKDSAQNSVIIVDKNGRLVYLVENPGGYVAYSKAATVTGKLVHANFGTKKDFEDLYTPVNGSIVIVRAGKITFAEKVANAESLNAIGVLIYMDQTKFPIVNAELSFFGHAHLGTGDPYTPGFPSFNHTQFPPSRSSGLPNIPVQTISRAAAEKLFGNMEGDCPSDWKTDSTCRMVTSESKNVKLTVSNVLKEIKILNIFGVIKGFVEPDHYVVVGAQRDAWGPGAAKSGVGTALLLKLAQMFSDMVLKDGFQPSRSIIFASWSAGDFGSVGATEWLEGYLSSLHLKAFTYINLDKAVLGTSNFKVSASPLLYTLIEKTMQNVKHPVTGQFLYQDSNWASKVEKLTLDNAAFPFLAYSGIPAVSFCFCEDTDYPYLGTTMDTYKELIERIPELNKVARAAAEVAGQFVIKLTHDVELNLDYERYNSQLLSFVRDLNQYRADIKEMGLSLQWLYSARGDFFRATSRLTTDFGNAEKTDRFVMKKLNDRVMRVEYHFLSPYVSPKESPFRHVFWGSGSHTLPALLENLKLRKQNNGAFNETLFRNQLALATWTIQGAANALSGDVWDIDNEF
Test: primary ELISA, signal ratio to HSA
measurement-label: hCD71:HSA

Solved cases below.
Input CD71-binding FN3 domain of SEQ ID NO: 146 (designed binder) MSLPAPKNLVVSRVTEDSARLSWTAPDAAFDSFDIGYFENTYEGEAIVLTVPGSERSYDLTGLKPGTEYVVWIGGVKGGSYSSPLSAIFTT . Output hCD71:HSA: 112

Entry CD71-binding FN3 domain of SEQ ID NO: 191 (designed binder) MSLPAPKNLVVSRVTEDSARLSWTAPDAAFDSFEIGYFENLYLGEAIVLTVPGSERSYDLAGLKPGTEYWVQIGGVKGGNWSAPLSAIFTT ; hCD71:HSA = 92

I. CD71-binding FN3 domain of SEQ ID NO: 198 (designed binder) MSLPAPKNLVVSRVTEDSARLSWTAPDAAFDSFLIGYTEYSVYGEAIVLTVPGSERSYDLTGLKPGTEYTVWIMGVKGGIKSTPLSAISTT
II. CD71-binding FN3 domain of SEQ ID NO: 201 (designed binder) MSLPAPKNLVVSRVTEDSARLSWTAPDAAFDSFEIAYFEGTFHGEAIVLFVPGSERSYDLTGLKPGTEYAVWIGGVKGGDYSRPLSAAFTT
Q: // which entry has the larger hCD71:HSA value, I or II ? # reply format: chosen label
A: I
(I: 84, II: 40)
